All figures here come from PubChem BioAssay AID2060900.

Measured pIC50 accompanies every entry in the list below.
Test system: 521955-158-R2-J5-PDC complex spheroids, viability
Experiment: Anticancer human tumor 521955-158-R2-J5-PDC patient-derived pancreatic carcinoma cell line growth inhibition [RAS]
Conditions: curve of first compound; second compound 0.003 µM
pIC50: −log10 of the molar value.

Field: example entries. Status: answers known.
molecule	measured_target	pIC50
C[C@@H](NC(=O)c1ncnc(N)c1Cl)c1ncc(C(=O)Nc2cc(C(F)(F)F)c(Cl)cn2)s1 + CCn1c(-c2cc(N3CCN(C)CC3)cnc2C(C)OC)c2c3cc(ccc31)-c1csc(n1)CC(NC(=O)C1CC1C)C(=O)N1CCCC(N1)C(=O)OCC(C)(C)C2	521955-158-R2-J5-PDC complex spheroids, viability	> 7.50
C=CC(=O)N1CCN(c2nc(OCC3CCCN3C)nc3c(F)c(-c4nc(N)cc(C)c4C(F)(F)F)c(Cl)cc23)C(C)C1 (stereo not drawn) + CCn1c(-c2cc(N3CCN(C)CC3)cnc2C(C)OC)c2c3cc(ccc31)-c1csc(n1)CC(NC(=O)C1CC1C)C(=O)N1CCCC(N1)C(=O)OCC(C)(C)C2	521955-158-R2-J5-PDC complex spheroids, viability	> 8.50
Cc1nc(N2CCC3(CC2)COC(C)C3N)c(CO)nc1Sc1ccnc(N)c1Cl (stereo not drawn) + CCn1c(-c2cc(N3CCN(C)CC3)cnc2C(C)OC)c2c3cc(ccc31)-c1csc(n1)CC(NC(=O)C1CC1C)C(=O)N1CCCC(N1)C(=O)OCC(C)(C)C2	521955-158-R2-J5-PDC complex spheroids, viability	> 7.50
CC(C)NCC(C(=O)N1CCN(c2ncnc3c2C(C)CC3O)CC1)c1ccc(Cl)cc1 (stereo not drawn) + CCn1c(-c2cccnc2C(C)OC)c2c3cc(ccc31)N1CCOC(CC(NC(=O)C(C(C)C)N(C)C(=O)C3(F)CCN(C(=O)C#CC(C)(C)N(C)C)CC3)C(=O)N3CCCC(N3)C(=O)OCC(C)(C)C2)C1	521955-158-R2-J5-PDC complex spheroids, viability	< 5.00
C=CC(=O)N1CCN(c2nc(OCC3CCCN3C)nc3c(F)c(-c4nc(N)cc(C)c4C(F)(F)F)c(Cl)cc23)C(C)C1 (stereo not drawn) + CCn1c(-c2cccnc2C(C)OC)c2c3cc(ccc31)N1CCOC(CC(NC(=O)C(C(C)C)N(C)C(=O)C3(F)CCN(C(=O)C#CC(C)(C)N(C)C)CC3)C(=O)N3CCCC(N3)C(=O)OCC(C)(C)C2)C1	521955-158-R2-J5-PDC complex spheroids, viability	< 6.00
CCc1c2c(nc3ccc(O)cc13)-c1cc3c(c(=O)n1C2)COC(=O)[C@]3(O)CC + CCn1c(-c2cc(N3CCN(C)CC3)cnc2C(C)OC)c2c3cc(ccc31)-c1csc(n1)CC(NC(=O)C1CC1C)C(=O)N1CCCC(N1)C(=O)OCC(C)(C)C2	521955-158-R2-J5-PDC complex spheroids, viability	> 9.02
CC(=O)OC12COC1CC(O)C1(C)C(=O)C(O)C3=C(C)C(OC(=O)C(O)C(NC(=O)OC(C)(C)C)c4ccccc4)CC(O)(C(OC(=O)c4ccccc4)C21)C3(C)C (stereo not drawn) + CCn1c(-c2cc(N3CCN(C)CC3)cnc2C(C)OC)c2c3cc(ccc31)-c1csc(n1)CC(NC(=O)C1CC1C)C(=O)N1CCCC(N1)C(=O)OCC(C)(C)C2	521955-158-R2-J5-PDC complex spheroids, viability	> 7.50

Hi! What's the reported pIC50 for CC(Nc1ccc2c(c1)OCCn1cc(N3C(=O)OCC3C(F)F)nc1-2)C(N)=O (stereo not drawn) + CCn1c(-c2cccnc2C(C)OC)c2c3cc(ccc31)N1CCOC(CC(NC(=O)C(C(C)C)N(C)C(=O)C3(F)CCN(C(=O)C#CC(C)(C)N(C)C)CC3)C(=O)N3CCCC(N3)C(=O)OCC(C)(C)C2)C1 on 521955-158-R2-J5-PDC complex spheroids, viability? > 7.50

* * *

System: 521955-158-R2-J5-PDC complex spheroids, viability
Assay: Anticancer human tumor 521955-158-R2-J5-PDC cell line growth inhibition [RAS];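 also: compound exposure lasted seven days before the viability read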;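 as to viability, T/C: spheroids also contain HUVEC endothelial cells and mesenchymal stem cells as stroma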
Conditions: second compound 0.316 µM; first compound 0.0316 µM; stronger effect = lower value
Response field label: string, one of met (viability, T/C strictly below 60%) or not met.

Example results:
compound	cat
C=CC(=O)Nc1cc(Nc2nccc(-c3cn(C)c4ccccc34)n2)c(OC)cc1N(C)CCN(C)C + C#Cc1c(F)ccc2cc(O)cc(-c3ncc4c(N5CC6CCC(C5)N6)nc(OCC56CCCN5CC(F)C6)nc4c3F)c12	met
CC(=O)OC12COC1CC(O)C1(C)C(=O)C(O)C3=C(C)C(OC(=O)C(O)C(NC(=O)OC(C)(C)C)c4ccccc4)CC(O)(C(OC(=O)c4ccccc4)C21)C3(C)C (stereo unspecified) + C#Cc1c(F)ccc2cc(O)cc(-c3ncc4c(N5CC6CCC(C5)N6)nc(OCC56CCCN5CC(F)C6)nc4c3F)c12	met
CC1(O)CCCC1n1c(=O)c(C(F)F)cc2cnc(NC3CCN(S(C)(=O)=O)CC3)nc21 (stereo unspecified) + C#Cc1c(F)ccc2cc(O)cc(-c3ncc4c(N5CC6CCC(C5)N6)nc(OCC56CCCN5CC(F)C6)nc4c3F)c12	met

Item Cc1nc(N2CCC3(CC2)COC(C)C3N)c(CO)nc1Sc1ccnc(N)c1Cl (stereo unspecified) + C#Cc1c(F)ccc2cc(O)cc(-c3ncc4c(N5CC6CCC(C5)N6)nc(OCC56CCCN5CC(F)C6)nc4c3F)c12 : viability, T/C beneath 60%, strictly? not met

Item CC(Nc1ccc2c(c1)OCCn1cc(N3C(=O)OCC3C(F)F)nc1-2)C(N)=O (stereo unspecified) + C=CC(=O)N1CCN(c2nc(OCC3CCCN3C)nc3c(F)c(-c4nc(N)cc(C)c4C(F)(F)F)c(Cl)cc23)C(C)C1 : viability, T/C beneath 60%, strictly? not met

Item C[C@@H](NC(=O)c1ncnc(N)c1Cl)c1ncc(C(=O)Nc2cc(C(F)(F)F)c(Cl)cn2)s1 + C=CC(=O)N1CCN(c2nc(OCC3CCCN3C)nc3c(F)c(-c4nc(N)cc(C)c4C(F)(F)F)c(Cl)cc23)C(C)C1 : viability, T/C beneath 60%, strictly? not met

* * *

Measured IC50 accompanies every entry in the list below.
System: 521955-158-R2-J5-PDC complex spheroids, viability
Assay: Anticancer human tumor 521955-158-R2-J5-PDC cell line growth inhibition [RAS];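 also: compound exposure lasted seven days before the viability read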
Settings: curve of first compound; second compound 0.316 µM

Field: example entries. Status: answers known.
compound	measured_target	IC50
CC(=O)OC12COC1CC(O)C1(C)C(=O)C(O)C3=C(C)C(OC(=O)C(O)C(NC(=O)OC(C)(C)C)c4ccccc4)CC(O)(C(OC(=O)c4ccccc4)C21)C3(C)C (stereo unspecified) + C#Cc1c(F)ccc2cc(O)cc(-c3ncc4c(N5CC6CCC(C5)N6)nc(OCC56CCCN5CC(F)C6)nc4c3F)c12	521955-158-R2-J5-PDC complex spheroids, viability	< 31.6 nM
CC(C)NCC(C(=O)N1CCN(c2ncnc3c2C(C)CC3O)CC1)c1ccc(Cl)cc1 (stereo unspecified) + C#Cc1c(F)ccc2cc(O)cc(-c3ncc4c(N5CC6CCC(C5)N6)nc(OCC56CCCN5CC(F)C6)nc4c3F)c12	521955-158-R2-J5-PDC complex spheroids, viability	< 31.6 nM
NC1c2ccccc2OC12CCN(c1cnc3c(N4CCCc5ncccc54)n[nH]c3n1)CC2 (stereo unspecified) + C=CC(=O)N1CCN(c2nc(OCC3CCCN3C)nc3c(F)c(-c4nc(N)cc(C)c4C(F)(F)F)c(Cl)cc23)C(C)C1	521955-158-R2-J5-PDC complex spheroids, viability	> 10000 nM
CC1(O)CCCC1n1c(=O)c(C(F)F)cc2cnc(NC3CCN(S(C)(=O)=O)CC3)nc21 (stereo unspecified) + C#Cc1c(F)ccc2cc(O)cc(-c3ncc4c(N5CC6CCC(C5)N6)nc(OCC56CCCN5CC(F)C6)nc4c3F)c12	521955-158-R2-J5-PDC complex spheroids, viability	< 31.6 nM
C[C@@H](NC(=O)c1ncnc(N)c1Cl)c1ncc(C(=O)Nc2cc(C(F)(F)F)c(Cl)cn2)s1 + C=CC(=O)N1CCN(c2nc(OCC3CCCN3C)nc3c(F)c(-c4nc(N)cc(C)c4C(F)(F)F)c(Cl)cc23)C(C)C1	521955-158-R2-J5-PDC complex spheroids, viability	> 10000 nM

What measured IC50 goes with CC(C)n1nc(-c2ccc3oc(N)nc3c2)c2c(N)ncnc21 + C#Cc1c(F)ccc2cc(O)cc(-c3ncc4c(N5CC6CCC(C5)N6)nc(OCC56CCCN5CC(F)C6)nc4c3F)c12 ? < 0.316 nM

* * *

Test system: 521955-158-R2-J5-PDC complex spheroids, viability
Test: Anticancer human tumor 521955-158-R2-J5-PDC cell line growth inhibition [RAS];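 also: compound exposure lasted seven days before the viability read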;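 as to viability, T/C: spheroids also contain HUVEC endothelial cells and mesenchymal stem cells as stroma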
Settings: second compound 0.03 µM; first compound 10 µM; stronger effect = lower value
Source text: RAS pathway inhibitors in Combinations in Complex Spheroids A high-throughput screen of multi-cell type tumor spheroids was designed to identify active combinations of RAS pathway inhibitors and targeted small molecules. Complex spheroids include a stromal component modeled by human endothelial cells (HUVEC) and fibroblasts modeled by human mesenchymal stem cells (MSCs). […] Compounds. […] If the clinical Cmax for an agent had not been determined, the highest concentration tested was 10 microM. […]
value_kind: viability, T/C (%)
Field: numeric (%). Do not append units.

Field: example entries. Status: answers known.
compound	viability, T/C (%)
CC(=O)OC12COC1CC(O)C1(C)C(=O)C(O)C3=C(C)C(OC(=O)C(O)C(NC(=O)OC(C)(C)C)c4ccccc4)CC(O)(C(OC(=O)c4ccccc4)C21)C3(C)C (stereo not given) + CCn1c(-c2cccnc2C(C)OC)c2c3cc(ccc31)N1CCOC(CC(NC(=O)C(C(C)C)N(C)C(=O)C3(F)CCN(C(=O)C#CC(C)(C)N(C)C)CC3)C(=O)N3CCCC(N3)C(=O)OCC(C)(C)C2)C1	41.6
C[C@@H](NC(=O)c1ncnc(N)c1Cl)c1ncc(C(=O)Nc2cc(C(F)(F)F)c(Cl)cn2)s1 + CCn1c(-c2cccnc2C(C)OC)c2c3cc(ccc31)N1CCOC(CC(NC(=O)C(C(C)C)N(C)C(=O)C3(F)CCN(C(=O)C#CC(C)(C)N(C)C)CC3)C(=O)N3CCCC(N3)C(=O)OCC(C)(C)C2)C1	48
NC1c2ccccc2OC12CCN(c1cnc3c(N4CCCc5ncccc54)n[nH]c3n1)CC2 (stereo not given) + CCn1c(-c2cc(N3CCN(C)CC3)cnc2C(C)OC)c2c3cc(ccc31)-c1csc(n1)CC(NC(=O)C1CC1C)C(=O)N1CCCC(N1)C(=O)OCC(C)(C)C2	4.07
CCC(CC)c1cc(NC2CCC(N)C2)n2nccc2n1 (stereo not given) + CCn1c(-c2cc(N3CCN(C)CC3)cnc2C(C)OC)c2c3cc(ccc31)-c1csc(n1)CC(NC(=O)C1CC1C)C(=O)N1CCCC(N1)C(=O)OCC(C)(C)C2	7.75

What measured viability, T/C goes with CC1(O)CCCC1n1c(=O)c(C(F)F)cc2cnc(NC3CCN(S(C)(=O)=O)CC3)nc21 (stereo not given) + CCn1c(-c2cccnc2C(C)OC)c2c3cc(ccc31)N1CCOC(CC(NC(=O)C(C(C)C)N(C)C(=O)C3(F)CCN(C(=O)C#CC(C)(C)N(C)C)CC3)C(=O)N3CCCC(N3)C(=O)OCC(C)(C)C2)C1 ? 13.6
